- assay-text: Cytotoxicity against MDCK cells assessed as reduction in cell viability incubated for 48 hrs by MTT assay
- experimental-context: dog
experimental-endpoint: CC50 at 48 h (µM)
Numbers only; they are read as µM.

CC50 at 48 h reading for Cc1[nH]c(=O)[nH]c(=O)c1CCCc1cn(C2OC(CO)C(O)C2O)nn1 (stereo unspecified) : 79

====

- System: Aspergillus fumigatus
- assay-text: Antifungal activity against Aspergillus fumigatus by CLSI based broth microdilution method
experimental-endpoint: pIC50
Remember, pIC50 is on a log scale: it is -log10 of the molar concentration.

pIC50 reading for C=CCc1ccc(OCc2cn([C@H]3O[C@H](COC(C)=O)[C@@H](OC(C)=O)[C@H](OC(C)=O)[C@H]3OC(C)=O)nn2)c(OC)c1 : 5.27
